Below, each of the molecules is paired with its reported MHC value.
Test system: Erythrocyte
testSummary: Hemolytic activity in sheep RBC assessed as minimal hemolytic concentration causing 10% hemolysis incubated for 1 hr by ELISA
Format: toxicity, cell-based, Ovis aries
outcomeMeasure: MHC

molecule	outcomeMeasure	observedValue
NCCCNc1nc(NCCCN)nc(N2CC(Cc3ccccc3)N(c3nc(NCCCN)nc(NCCCN)n3)CC2Cc2ccccc2)n1 (stereo not drawn)	MHC	> 358.4 µM
NCCCN(CCCN)c1nc(NCc2ccccc2)nc(N2CC(Cc3ccccc3)N(c3nc(NCc4ccccc4)nc(N(CCCN)CCCN)n3)CC2Cc2ccccc2)n1 (stereo not drawn)	MHC	> 318.5 µM
NCCCNc1nc(NCCCN)nc(N2CCN(c3nc(NCCCN)nc(NCCCN)n3)C(Cc3ccccc3)C2)n1 (stereo not drawn)	MHC	> 409.6 µM
N=C(N)NCCCNc1nc(NCCCNC(=N)N)nc(N2CC(Cc3ccccc3)N(c3nc(NCCCNC(=N)N)nc(NCCCNC(=N)N)n3)CC2Cc2ccccc2)n1 (stereo not drawn)	MHC	> 290.3 µM
N=C(N)NCCN(CCNC(=N)N)c1nc(NCc2ccccc2)nc(N2CCN(c3nc(NCc4ccc5ccccc5c4)nc(N(CCNC(=N)N)CCNC(=N)N)n3)C(Cc3ccccc3)C2)n1 (stereo not drawn)	MHC	37.3 µM
N=C(N)NCCCNc1nc(NCCCN)nc(N2CCN(c3nc(NCCCN)nc(NCCCN)n3)CC2Cc2ccccc2)n1 (stereo not drawn)	MHC	> 384 µM
N=C(N)NCCNc1nc(NCCNC(=N)N)nc(N2CCN(c3nc(NCCNC(=N)N)nc(NCCNC(=N)N)n3)C(Cc3ccccc3)C2)n1 (stereo not drawn)	MHC	> 348.2 µM
N=C(N)NCCCCNc1nc(NCCCCNC(=N)N)nc(N2CC(Cc3ccccc3)N(c3nc(NCCCCNC(=N)N)nc(NCCCCNC(=N)N)n3)CC2Cc2ccccc2)n1 (stereo not drawn)	MHC	> 273.2 µM
N=C(N)NCCNc1nc(NCCNC(=N)N)nc(N2CC(Cc3ccccc3)N(c3nc(NCCNC(=N)N)nc(NCCNC(=N)N)n3)CC2Cc2ccccc2)n1 (stereo not drawn)	MHC	> 309.8 µM
N=C(N)NCCCN(CCCNC(=N)N)c1nc(NCc2ccccc2)nc(N2CC(Cc3ccccc3)N(c3nc(NCc4ccccc4)nc(N(CCCNC(=N)N)CCCNC(=N)N)n3)CC2Cc2ccccc2)n1 (stereo not drawn)	MHC	226.4 µM
N=C(N)NCCCNc1nc(NCCCNC(=N)N)nc(N2CCN(c3nc(NCCCNC(=N)N)nc(NCCCNC(=N)N)n3)C(Cc3ccccc3)C2)n1 (stereo not drawn)	MHC	> 322.6 µM
NCCN(CCN)c1nc(NCc2ccccc2)nc(N2CCN(c3nc(NCc4ccc5ccccc5c4)nc(N(CCN)CCN)n3)C(Cc3ccccc3)C2)n1 (stereo not drawn)	MHC	> 320 µM
N=C(N)NCCCCNc1nc(NCCCCNC(=N)N)nc(N2CCN(c3nc(NCCCCNC(=N)N)nc(NCCCCNC(=N)N)n3)C(Cc3ccccc3)C2)n1 (stereo not drawn)	MHC	> 302.1 µM

====

Test system: RAW264.7
testSummary: Antiinflammatory activity in LPS-induced mouse RAW264.7 cells assessed as reduction in iNOS mRNA expression level at 5 ug/ml measured after 18 hrs by RT-PCR assay relative to control
Format: functional, cell-based
runConditions: dose 5.0 µg/ml
The source made the active and inactive calls. No cut-off for these calls is given here.

molecule	Activity
N=C(N)NCCNc1nc(NCCNC(=N)N)nc(N2CC(Cc3ccccc3)N(c3nc(NCCNC(=N)N)nc(NCCNC(=N)N)n3)CC2Cc2ccccc2)n1 (stereo not given)	Active
NCCCCNc1nc(NCCCCN)nc(N2CC(Cc3ccccc3)N(c3nc(NCCCCN)nc(NCCCCN)n3)CC2Cc2ccccc2)n1 (stereo not given)	Active
NCCCN(CCCN)c1nc(NCc2ccccc2)nc(N2CC(Cc3ccccc3)N(c3nc(NCc4ccccc4)nc(N(CCCN)CCCN)n3)CC2Cc2ccccc2)n1 (stereo not given)	Active
NCCN(CCN)c1nc(NCc2ccccc2)nc(N2CC(Cc3ccccc3)N(c3nc(NCc4ccccc4)nc(N(CCN)CCN)n3)CC2Cc2ccccc2)n1 (stereo not given)	Active
NCCNc1nc(NCCN)nc(N2CC(Cc3ccccc3)N(c3nc(NCCN)nc(NCCN)n3)CC2Cc2ccccc2)n1 (stereo not given)	Active

====

Tested on: Staphylococcus aureus
testSummary: Antibacterial activity against Staphylococcus aureus KCTC 1621 strain assessed as bacterial growth inhibition measured at 18 to 24 hrs by microdilution assay
Assay type: functional
runConditions: time 18-24 hrs

molecule	MIC / µM
N=C(N)NCCN(CCNC(=N)N)c1nc(NCc2ccccc2)nc(N2CCN(c3nc(NCc4ccc5ccccc5c4)nc(N(CCNC(=N)N)CCNC(=N)N)n3)C(Cc3ccccc3)C2)n1 (configuration not stated)	4.1
NCCCCNc1nc(NCCCCN)nc(N2CCN(c3nc(NCCCCN)nc(NCCCCN)n3)C(Cc3ccccc3)C2)n1 (configuration not stated)	23.5
N=C(N)NCCCNc1nc(NCCCNC(=N)N)nc(N2CCN(c3nc(NCCCNC(=N)N)nc(NCCCNC(=N)N)n3)C(Cc3ccccc3)C2)n1 (configuration not stated)	20.2
N=C(N)NCCCNc1nc(NCCCNC(=N)N)nc(N2CC(Cc3ccccc3)N(c3nc(NCCCNC(=N)N)nc(NCCCNC(=N)N)n3)CC2Cc2ccccc2)n1 (configuration not stated)	4.5
NCCN(CCN)c1nc(NCc2ccccc2)nc(N2CCN(c3nc(NCc4ccc5ccccc5c4)nc(N(CCN)CCN)n3)C(Cc3ccccc3)C2)n1 (configuration not stated)	5
NCCNc1nc(NCCN)nc(N2CCN(c3nc(NCCN)nc(NCCN)n3)C(Cc3ccccc3)C2)n1 (configuration not stated)	56.4
NCCCNc1nc(NCCCN)nc(N2CC(Cc3ccccc3)N(c3nc(NCCCN)nc(NCCCN)n3)CC2Cc2ccccc2)n1 (configuration not stated)	11.2

====

Test system: Pseudomonas aeruginosa
testSummary: Antibacterial activity against multidrug-resistant Pseudomonas aeruginosa CCARM 2109 strain assessed as bacterial growth inhibition measured at 18 to 24 hrs by microdilution assay
Assay type: functional
runConditions: time 18-24 hrs
Below, each of the compounds is paired with its reported MIC value.

compound	studyTarget	boundSign	MIC / µM
Cc1onc(-c2ccccc2)c1C(=O)N[C@@H]1C(=O)N2[C@@H]1SC(C)(C)[C@@H]2C(=O)O	Pseudomonas aeruginosa	=	5100
O=C(O)c1cn(C2CC2)c2cc(N3CCNCC3)c(F)cc2c1=O	Pseudomonas aeruginosa	>	6180
NCCNc1nc(NCCN)nc(N2CC(Cc3ccccc3)N(c3nc(NCCN)nc(NCCN)n3)CC2Cc2ccccc2)n1 (centres undefined)	Pseudomonas aeruginosa	=	24.3
NCCCN(CCCN)c1nc(NCc2ccccc2)nc(N2CC(Cc3ccccc3)N(c3nc(NCc4ccccc4)nc(N(CCCN)CCCN)n3)CC2Cc2ccccc2)n1 (centres undefined)	Pseudomonas aeruginosa	=	10

====

Below, each of the compounds is paired with its reported MIC value.
System: Staphylococcus aureus
testSummary: Antibacterial activity against Staphylococcus aureus KCTC 1621 strain assessed as bacterial growth inhibition measured at 18 to 24 hrs in presence of 6 uM NH4Cl by microdilution assay
Format: functional
runConditions: time 18-24 hrs

compound	MIC / µM
N=C(N)NCCNc1nc(NCCNC(=N)N)nc(N2CC(Cc3ccccc3)N(c3nc(NCCNC(=N)N)nc(NCCNC(=N)N)n3)CC2Cc2ccccc2)n1 (stereo not given)	4.8
NCCCCNc1nc(NCCCCN)nc(N2CC(Cc3ccccc3)N(c3nc(NCCCCN)nc(NCCCCN)n3)CC2Cc2ccccc2)n1 (stereo not given)	5.2
NCCCN(CCCN)c1nc(NCc2ccccc2)nc(N2CC(Cc3ccccc3)N(c3nc(NCc4ccccc4)nc(N(CCCN)CCCN)n3)CC2Cc2ccccc2)n1 (stereo not given)	5
NCCN(CCN)c1nc(NCc2ccccc2)nc(N2CC(Cc3ccccc3)N(c3nc(NCc4ccccc4)nc(N(CCN)CCN)n3)CC2Cc2ccccc2)n1 (stereo not given)	5.4
NCCNc1nc(NCCN)nc(N2CC(Cc3ccccc3)N(c3nc(NCCN)nc(NCCN)n3)CC2Cc2ccccc2)n1 (stereo not given)	6.1

====

Tested on: RAW264.7
testSummary: Antiinflammatory activity in LPS-induced mouse RAW264.7 cells assessed as reduction in NO production at 5 ug/ml measured after 72 hrs by ELISA assay relative to control
Format: functional
outcomeMeasure: inhibition at 5 µg/mL

compound	outcomeMeasure	observedValue
NCCNc1nc(NCCN)nc(N2CC(Cc3ccccc3)N(c3nc(NCCN)nc(NCCN)n3)CC2Cc2ccccc2)n1 (centres undefined)	inhibition at 5 µg/mL	31.5%
NCCCN(CCCN)c1nc(NCc2ccccc2)nc(N2CC(Cc3ccccc3)N(c3nc(NCc4ccccc4)nc(N(CCCN)CCCN)n3)CC2Cc2ccccc2)n1 (centres undefined)	inhibition at 5 µg/mL	75.7%
NCCCCNc1nc(NCCCCN)nc(N2CC(Cc3ccccc3)N(c3nc(NCCCCN)nc(NCCCCN)n3)CC2Cc2ccccc2)n1 (centres undefined)	inhibition at 5 µg/mL	72.6%
N=C(N)NCCNc1nc(NCCNC(=N)N)nc(N2CC(Cc3ccccc3)N(c3nc(NCCNC(=N)N)nc(NCCNC(=N)N)n3)CC2Cc2ccccc2)n1 (centres undefined)	inhibition at 5 µg/mL	68.1%
